Each recorded value in this set is attributed to PubChem BioAssay (NCATS).

Assay: qHTS of pediatric cancer cell lines to identify multiple opportunities for drug repurposing: Primary screen for RD cells (AID 1347104); further: nearly all actives have a fitted effect of over 55% in size
Conditions: RD rhabdomyosarcoma viability, CellTiter-Glo luminescence, 48 h; series mostly up to 46 µM
Records with an inconclusive call do not appear. Activity calls are given as the source filed them. The call rests on the fitted dose curve; in most records, active means well fitted cell-killing curve with a large enough effect; inconclusive means small, poorly fitted or top-dose-only effect; inactive means flat fitted curve, though single readings scatter.
Bench note: report the call from 1 for active, -1 for inactive

Hi team, can someone confirm the assay call for `NC(=O)c1cccc2[nH]c(-c3ccc([C@H]4CCCN4)cc3F)nc12` ? -1

Call for entry `O=C1C[C@@H](c2ccc(O)cc2)Oc2cc(O)cc(O)c21` : -1

Recorded test outcome, item `CCCCC1C(=O)N(c2ccccc2)N(c2ccccc2)C1=O` -1

For this molecule, state the assay outcome: `O=c1c(-c2ccc(O)cc2)coc2cc(O)ccc12` -1

I'd appreciate the recorded outcome for `CCn1c(C(=O)N(C2CC2)C2CC2)cc2c3c(ncn3C)c(Nc3cc(C)n(C)n3)nc21` from this test. -1

Recorded test call requested for `COC(=O)[C@@H]1[C@H]2C[C@H]3c4[nH]c5ccccc5c4CCN3C[C@@H]2CC[C@@H]1O` -1

Hello, I am checking results. What call was entered for `CC(C)(Cc1ccc2ccccc2c1)NC[C@@H](O)COc1cccc(Cl)c1C#N` ? -1

What call does the record list for `COc1ncc(-c2ccc3nccc(-c4ccnnc4)c3c2)cc1NS(=O)(=O)c1ccc(F)cc1F` ? 1

Entry `COc1cc2nc(-c3ccc(N4CCN(C)CC4)cc3)nc(NCCN3CCOCC3)c2cc1OC` : call = ? 1

Test call, this molecule: `N#CC(=C(N)Sc1ccccc1N)C(C#N)=C(N)Sc1ccccc1N` 1

What call does the record list for `CCc1ccc(C=C2SC(=S)NC2=O)cc1` ? -1

Per the assay record, what outcome was assigned to `O=C(O)Cc1cccc2ccccc12` ? -1

Each molecule tested received a call. Report the one for `CC[C@@]1(O)C[C@H](O[C@H]2C[C@H](N(C)C)[C@H](O[C@H]3C[C@H](O)[C@H](O[C@H]4CCC(=O)[C@H](C)O4)[C@H](C)O3)[C@H](C)O2)c2c(cc3c(c2O)C(=O)c2c(O)cccc2C3=O)[C@@H]1C(=O)OC` . -1

Hi, sorry to bother you, what did the test record for `Cc1c[nH]c(C=C2C(=O)Nc3ccccc32)c1CCC(=O)O` ? -1

Please indicate how the test categorized `CCC(CC)[C@H](NC(C)=O)[C@@H]1[C@H](O)[C@@H](C(=O)O)C[C@@H]1N=C(N)N` . -1

Dear all, I need the recorded test outcome for `CC(C)(C)NC(=O)Nc1cccc(Nc2ncc(F)c(NC(C)(C)CO)n2)c1` , thank you. -1

###

Assay: Primary qHTS for inhibitors of nuclear receptor binding SET domain protein 2 (NSD2) in an isogenic RCH-ACV NSD2 p.E1099K mutant (9B) (AID 1645876); further: nearly all actives have a fitted effect of over 70% in size
Conditions: RCH-ACV (leukaemia line) NSD2 E1099K (9B) viability, CellTiter-Glo, 72 h; series mostly up to 44.9 µM
Inconclusive results are not listed. The source made the active and inactive calls. Calls follow the shape of the dose curve; as a rule, active = well fitted inhibition curve with a large enough effect; inconclusive = small, poorly fitted or top-dose-only effect; inactive = flat fitted curve, though single readings scatter.
Write down one outcome, taken from active, inactive

These recorded examples may help you get a feel for the data.
Compound	Label
CC(C)C(=O)Oc1ccc(CO)cc1[C@H](CCN(C(C)C)C(C)C)c1ccccc1	inactive
CN(C)CCC(c1ccccc1)c1ccccn1 (stereo not given)	inactive
Nc1ncnc2c1nc(Cl)n2[C@@H]1O[C@H](CO)[C@@H](O)[C@@H]1O	active

For `C[C@@H](O)[C@H]1C(=O)N2C(C(=O)O)=C(S[C@@H]3CN[C@H](C(=O)N(C)C)C3)[C@H](C)[C@H]12` , what call appears in the results of this test? inactive

Recorded test call requested for CC(C(=O)O)c1ccc(-c2ccccc2)c(F)c1 (stereo not given) inactive
